System: SK-MEL-28 melanoma
Experiment: NCI-60 one-dose screen, 48 h (100 = growth as untreated, 0 = no growth, -100 = all killed)
Conditions: 10 µM
This is part of a sample that, as a whole, favours compounds with a hit. Of some 83,000 tested, about 20% had one in any assay.
For each of the molecules below, state its growth.
Give just the numeric value; % need not be written.

Q. Which value of growth has been reported for CC(=O)Nc1cc(C)ccc1C in the records?
A. 105

Q. What do we get for O=C(O)COc1ccc(OCC(=O)O)cc1 ?
A. 53.2

Q. Again, but for N=S(c1ccccc1[N+](=O)[O-])c1ccccc1[N+](=O)[O-]
A. 77.5

Q. Here is the next molecule: OCC1OC(n2cnc3c(=S)nc[nH]c32)C(O)C1O (configuration not stated)
A. 113

Q. Follow-up item: CC(C)(C)CC(C)(C)c1ccc(OCCO)cc1
A. 141

Q. Now try CCCC1CCC(=C2C(=O)CCC2=O)O1 (configuration not stated) .
A. 103

Q. Another molecule: CCCCCC(C)c1ccc(O)c(C)c1 (configuration not stated)
A. 111

---

System: NCI/ADR-RES ovarian
Assay: NCI-60 one-dose screen, 48 h
Settings: 10 µM
This is part of a sample that, as a whole, favours compounds with a hit. Of some 83,000 tested, about 20% had one in any assay. Activity calls are given as the source filed them. The calls were made as follows: active = growth percent below 10; inactive = the rest.
Return exactly one item of active, inactive

Q. Hi, sorry to bother you, what did the test record for Clc1ccc(/C=C/c2ccccn2)c(Cl)c1 ?
A. inactive

Q. Similarly, Cc1cc(O)c(C(C)C)cc1Cl ?
A. inactive

Q. Record: CSC1SCC2C(=O)N(C)C(C(C)C)C(=O)OCC(NC(=O)c3cnc4ccccc4n3)C(=O)NC(C)C(=O)N(C)C1C(=O)N(C)C(C(C)C)C(=O)OCC(NC(=O)c1cnc3ccccc3n1)C(=O)NC(C)C(=O)N2C (stereo unspecified)
A. active

Q. Input COC1OCC(O)C(O)C1O (stereo unspecified)
A. inactive

Q. Try the compound O=c1ccn(C2CC(O)C(COC(c3ccccc3)(c3ccccc3)c3ccccc3)O2)c(=O)[nH]1 (stereo unspecified)
A. inactive

Q. Could you do the same for Oc1ccc(N=Nc2ccccn2)c(O)c1 , please?
A. inactive

Q. Now consider CCO/C=C1\SC(=S)N(c2cccc(O)c2)C1=O .
A. inactive

Q. Next: CCC(C)(C)c1cc(O)c(C(C)(C)CC)cc1O
A. inactive

Q. How about this compound: CN1CCN(CCCN2c3ccccc3Sc3ccc(C(F)(F)F)cc32)CC1
A. inactive

Q. Further, for NC(=O)SCC(=O)NNc1ccccc1 ?
A. inactive

Q. Same question, O=C1C=C(O)c2ccccc2C1=O.[Ag] this time
A. inactive

---

System: M14 melanoma
Assay: NCI-60 one-dose screen, 48 h
Details: 10 µM
This is part of a sample that, as a whole, favours compounds with a hit. Of some 83,000 tested, about 20% had one in any assay. The source made the active and inactive calls. How the source made its calls: active means growth percent below 10; inactive means the rest.
Respond using exactly one of the listed classes: 1 (yes) for active, 0 (no) for inactive

Q. // return assay outcome for CCCCCC(C)c1ccc(O)c(C)c1 (stereo not given)
A. 0 (no)

Q. Please give the result for CCN(CC)c1ccc(NC(C(=O)c2ccccc2)c2ccccc2)cc1 (stereo not given) too.
A. 0 (no)

Q. Cc1cc(O)c(C(C)C)cc1Cl ?
A. 0 (no)

Q. Proceed to N=S(c1ccccc1[N+](=O)[O-])c1ccccc1[N+](=O)[O-]
A. 0 (no)

Q. Same thing, different compound: OC(CN1CCCC2CCCCC21)c1cc2ccccc2c2ccccc12 (stereo not given)
A. 1 (yes)

Q. Can you check COc1ccc(CC(=O)c2ccc(O)cc2O)cc1 next?
A. 0 (no)

Q. // same read-out, input: O=C1NC(=O)c2cc([N+](=O)[O-])ccc21
A. 0 (no)

Q. Cool, now O=C(O)COc1ccc(OCC(=O)O)cc1
A. 0 (no)

Q. Field entry: CCN1/C(=C/C=C/C=C/c2sc3ccccc3[n+]2CC)Sc2ccccc21
A. 1 (yes)

Q. Param item: CO[C@H](C(=O)[C@@H](O)[C@@H](C)O)[C@@H]1Cc2cc3cc(OC4CC(OC5CC(O)C(O)C(C)O5)C(O)C(C)O4)c(C)c(O)c3c(O)c2C(=O)[C@H]1OC1CC(OC2CC(OC3CC(C)(O)C(O)C(C)O3)C(O)C(C)O2)C(O)C(C)O1 (stereo not given in full)
A. 1 (yes)

// provenance: PubChem BioAssay (NCI)
